These entries and their values trace back to ChEMBL document CHEMBL1201862.

tested on: OVCAR-5; experiment: NCI tumour cell line growth inhibition, 48 h
Calls of active or inactive are those of the source. Rule as the data show it: active = GI50 up to about 1.1 µM and inactive = higher.
property.label: GI50

compound | recorded.measurement
COC(=O)c1c2c(cc3c1CC1(Cc4ccccc4C1)C3)CCC2 | 25.2 µM (inactive)
Cc1cccc(-c2nc3c(C(=O)NCCN(C)C)cccc3[nH]2)c1 | 1.88 µM (inactive)
N/C(S)=N/N=C/c1ncccc1O | 3.1 µM (inactive)
N#CC1C(=O)NC(=O)C1=O (configuration not stated) | > 100 µM (inactive)
COC1=CC2=NCCc3n[nH]c(c32)C1=O | 18.5 µM (inactive)
O=S(=O)(c1cc(Cl)ccc1Cl)N1CCN(c2ccc(Cl)c(Cl)c2)CC1 | > 100 µM (inactive)
COc1ccc2nc3c(C)cc4ccccc4n3c2c1 | > 100 µM (inactive)
Nc1nc(S)nc(C(=O)Nc2nccs2)c1-c1ccccc1 | > 100 µM (inactive)
O=c1[nH]c(=O)n(C2OC(CO)C(N(O)Cc3ccc(F)cc3)C2O)cc1Br (configuration not stated) | > 100 µM (inactive)
Cc1c2cccc-2c2cc(O)c3ccccc3c2n1-c1ccc(N(C)C)cc1 | 10.9 µM (inactive)
CC1CCCC2(CC[N+](C)(CCC[N+](C)(C)C)CC2)C1 (configuration not stated) | > 100 µM (inactive)
Nc1nc(SCc2ccccn2)c2ncn(C3CCCC3)c2n1 | > 100 µM (inactive)

###

tested on: SF-295; assay: NCI tumour cell line growth inhibition, 48 h
Calls of active or inactive are those of the source. Rule as the data show it: active = GI50 up to about 1.1 µM and inactive = higher.

compound | GI50
CN[C@@H]1C[C@H]2O[C@@](C)([C@@H]1OC)n1c3ccccc3c3c4c(c5c6ccccc6n2c5c31)C(=O)N[C@@H]4O | 0.0241 µM (active)
COc1cc(Br)cc2cc(-c3cn4c(n3)sc3ccccc34)c(=O)oc12 | 19.8 µM (inactive)
C=C(C)[C@@H]1CC[C@]2(C(=O)O)CC[C@]3(C)[C@H](CC[C@@H]4[C@@]5(C)CC[C@H](O)C(C)(C)[C@@H]5CC[C@]43C)[C@@H]12 | 7.71 µM (inactive)
CCN(CC)CCC1CCCCN1CC(=O)N1c2ccccc2NC(=O)CC1C (centres undefined) | > 100 µM (inactive)

###

system: TK-10; test: NCI tumour cell line growth inhibition, 48 h
The source made the active and inactive calls. Cut-off read from the data, not from the text of the source: active = GI50 up to about 1.1 µM and inactive = higher.

compound | GI50
CCN(CC)CCCNc1ccc2nc(C)n3c4ccc(O)cc4c(=O)c1c23 | 7.16 µM (inactive)
CCOC(=O)c1sc2c(C(=O)OCC)n3ccccc3c2c1N | 52.7 µM (inactive)
CCN(CC)C(=S)N/N=C(/c1ccccc1)c1ccccn1 | 0.439 µM (active)
O=C1CCCCCC1CC(Sc1ccccc1)Sc1ccccc1 (stereo unspecified) | > 100 µM (inactive)
c1cncc(CSc2ncnc3[nH]cnc23)c1 | > 100 µM (inactive)
Cc1nnc2n(c1=O)CCCN2C | > 100 µM (inactive)
CC(=O)OCCc1cccnc1/C=N/O | > 100 µM (inactive)
O=C1C[C@@H](c2ccc(O)cc2)[C@@]2(O1)C(=O)O[C@H]([C@@H](O)CO)[C@@H]2O | > 100 µM (inactive)
COC(=O)C1=C(c2ccc3c(c2)OCO3)OC(c2cc(OC)c(OC)c(OC)c2)C1 (stereo unspecified) | 5.2 µM (inactive)
CN(C)CCNc1ccc2ncn3c4ccc(O)cc4c(=O)c1c23 | 2.66 µM (inactive)
CC(NC(=O)OC(C)(C)C)C(=O)NC(Cc1ccccc1)C(=O)NCC(=O)Oc1c(Cl)c(Cl)c(Cl)c(Cl)c1Cl (stereo unspecified) | 27 µM (inactive)
